- Target system: UniProt:Q72874
- Method notes: Tested for binding affinity against HIV protease
Observed property: Ki (nM)

[[record]]
compound = "Cc1cc(SC2=C(O)OC(CCc3ccc(O)cc3)(C(C)C)CC2=O)c(C(C)(C)C)cc1NS(=O)(=O)c1ccc(C#N)cc1 (configuration not stated)"
target_system = "UniProt:Q72874"
measured_value = 0.41

[[record]]
compound = "Cc1cc(SC2=C(O)OC(CCc3ccc(O)cc3)(C(C)C)CC2=O)c(C(C)(C)C)cc1NS(=O)(=O)c1ccccc1 (configuration not stated)"
target_system = "UniProt:Q72874"
measured_value = 0.53

[[record]]
compound = "Cc1cc(SC2=C(O)O[C@](CCc3ccccc3)(C(C)C)CC2=O)c(C(C)(C)C)cc1NS(=O)(=O)c1ccc(C#N)cc1"
target_system = "UniProt:Q72874"
measured_value = 0.2


(A) Cc1cc(SC2=C(O)OC(CCc3ccc(O)cc3)(C(C)C)CC2=O)c(C(C)(C)C)cc1NS(=O)(=O)c1cccc(C#N)c1 (configuration not stated)
(B) Cc1cc(SC2=C(O)O[C@](CCc3ccc(O)cc3)(C(C)C)CC2=O)c(C(C)(C)C)cc1NS(=O)(=O)c1ccc(C(F)(F)F)cn1
(C) Cc1cc(SC2=C(O)O[C@@](CCc3ccc(O)cc3)(C(C)C)CC2=O)c(C(C)(C)C)cc1NS(=O)(=O)c1ccc(C(F)(F)F)cn1
(D) Cc1cc(SC2=C(O)OC(CCc3ccccc3)(C(C)C)CC2=O)c(C(C)(C)C)cc1NS(=O)(=O)c1cccc(C#N)c1 (configuration not stated)
Task for the reader: rank each entry by its Ki, from the minimum upward. Write the labels in rank order as requested. A, B, D, C
(A: 0.21 nM, B: 0.39 nM, D: 1.4 nM, C: 9.54 nM)
